SYSTEM_UNDER_TEST: σ2 receptor (Homo sapiens, UniProt Q5BJF2)
Sequence (Q5BJF2 whole entry, species assumed): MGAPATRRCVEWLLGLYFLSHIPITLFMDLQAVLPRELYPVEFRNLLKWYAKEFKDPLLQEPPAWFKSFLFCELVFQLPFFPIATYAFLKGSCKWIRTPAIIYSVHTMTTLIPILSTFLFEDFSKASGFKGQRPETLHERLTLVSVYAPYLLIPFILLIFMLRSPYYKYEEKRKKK
ASSAY: σ2 receptor radioligand binding, [3H]DTG, HEK293 membranes
CONDITIONS: ratio, σ1 over σ2
PARAMETER: selectivity σ1:σ2
Give only the figure.

Solved cases (2 shown):
* Fc1ccc(CN2CCCC23CCN(Cc2cn4ccccc4n2)C3)cc1F (stereo not shown) [Compound 25a] | 6
* Cc1ccc(CO[C@H]2CCCN(Cc3cccc(F)c3)C2)cc1 [Compound 19g] | 31

// switching to the query compound
Q: // query selectivity σ1:σ2 value for entry Fc1ccc(COC2CCN(Cc3ccc4[nH]cnc4c3)CC2)cc1F [Compound 10a]
Ans: 20
